- experimental-target: Human FAAH (Homo sapiens)
- Construct: made in house
- measurement-description: FAAH assay (glutamate dehydrogenase-coupled, oleamide substrate, absorbance at 340 nm)
- Type: biochemical
- study-conditions: irreversible inhibition potency
property-measured: hFAAH KInact/K

- CCC(CC)Oc1cccc(C=C2CCN(C(=O)Nc3cccnn3)CC2)c1 [Example 28]: 303 M⁻¹ s⁻¹
- O=C(Nc1cccnn1)N1CCC(=Cc2ccc3c(c2)OCCO3)CC1: 2770 M⁻¹ s⁻¹
- CN1CCCCC1COc1cccc(C=C2CCN(C(=O)Nc3cccnn3)CC2)c1 (stereo not drawn): 35 M⁻¹ s⁻¹
- CC1CCC(Oc2cccc(C=C3CCN(C(=O)Nc4cccnn4)CC3)c2)CC1 (stereo not drawn): 2090 M⁻¹ s⁻¹
- O=C(Nc1cccnn1)N1CCC(=Cc2cccc(OC3CCOC3)c2)CC1 (stereo not drawn): 371 M⁻¹ s⁻¹
- Cc1ncsc1CCOc1cccc(C=C2CCN(C(=O)Nc3cccnn3)CC2)c1: 6410 M⁻¹ s⁻¹
- O=C(Nc1cccnn1)N1CCC(=Cc2cccc(OC3CCCOC3)c2)CC1 (stereo not drawn): 783 M⁻¹ s⁻¹
- CC(C)(F)CCOc1cccc(C=C2CCN(C(=O)Nc3cccnn3)CC2)c1: 3869 M⁻¹ s⁻¹
- CC(C)C(C)Oc1cccc(C=C2CCN(C(=O)Nc3cccnn3)CC2)c1 (stereo not drawn): 1420 M⁻¹ s⁻¹
- Cc1ccc(COc2cccc(C=C3CCN(C(=O)Nc4cccnn4)CC3)c2)cn1: 188 M⁻¹ s⁻¹
- O=C(Nc1cccnn1)N1CCC(=Cc2cccc(OCc3cccc(C(F)(F)F)n3)c2)CC1: 294 M⁻¹ s⁻¹
- Cc1cc(COc2cccc(C=C3CCN(C(=O)Nc4cccnn4)CC3)c2)c(C(F)(F)F)o1: 131 M⁻¹ s⁻¹
- Cc1cccc(OCCOc2cccc(C=C3CCN(C(=O)Nc4cccnn4)CC3)c2)c1: 31600 M⁻¹ s⁻¹
- O=C(Nc1cccnn1)N1CCC(=Cc2cccc(OCCc3cccc(F)c3)c2)CC1: 25980 M⁻¹ s⁻¹
- O=C(Nc1cccnn1)N1CCC(=Cc2cccc(OC3CCCCCC3)c2)CC1: 2190 M⁻¹ s⁻¹
- COc1cccc(C=C2CCN(C(=O)Nc3cccnn3)CC2)c1: 1480 M⁻¹ s⁻¹
- CCCC(C)Oc1cccc(C=C2CCN(C(=O)Nc3cccnn3)CC2)c1 (stereo not drawn) [Example 31]: 7450 M⁻¹ s⁻¹
- CCC(C)Oc1cccc(C=C2CCN(C(=O)Nc3cccnc3)CC2)c1 (stereo not drawn) [Example 23]: 555 M⁻¹ s⁻¹

###

- experimental-target: Human FAAH (Homo sapiens)
- Construct: made in house
- measurement-description: FAAH assay (glutamate dehydrogenase-coupled, oleamide substrate, absorbance at 340 nm)
- Type: biochemical
- study-conditions: further compounds, read-out: hFAAH_Kinact/Ki—StL
property-measured: kinact/KI (M⁻¹ s⁻¹)

• Cc1ccc(NC(=O)N2CCC(=Cc3cccc(OCC4CCCCO4)c3)CC2)cn1 (stereo not shown) = 536
• O=C(Nc1cccnc1)N1CCC(=Cc2cccc(OCC3CCCCO3)c2)CC1 (stereo not shown) = 3130
• COc1ccc(NC(=O)N2CCC(=Cc3cccc(OCC4CCCCO4)c3)CC2)cn1 (stereo not shown) = 950
• COc1cnc(NC(=O)N2CCC(=Cc3cccc(OCC4CCCCO4)c3)CC2)cn1 (stereo not shown) = 404

###

- experimental-target: Human FAAH (Homo sapiens, UniProt O00519)
- Construct: made in house
- Sequence (O00519 32-579 limits assumed): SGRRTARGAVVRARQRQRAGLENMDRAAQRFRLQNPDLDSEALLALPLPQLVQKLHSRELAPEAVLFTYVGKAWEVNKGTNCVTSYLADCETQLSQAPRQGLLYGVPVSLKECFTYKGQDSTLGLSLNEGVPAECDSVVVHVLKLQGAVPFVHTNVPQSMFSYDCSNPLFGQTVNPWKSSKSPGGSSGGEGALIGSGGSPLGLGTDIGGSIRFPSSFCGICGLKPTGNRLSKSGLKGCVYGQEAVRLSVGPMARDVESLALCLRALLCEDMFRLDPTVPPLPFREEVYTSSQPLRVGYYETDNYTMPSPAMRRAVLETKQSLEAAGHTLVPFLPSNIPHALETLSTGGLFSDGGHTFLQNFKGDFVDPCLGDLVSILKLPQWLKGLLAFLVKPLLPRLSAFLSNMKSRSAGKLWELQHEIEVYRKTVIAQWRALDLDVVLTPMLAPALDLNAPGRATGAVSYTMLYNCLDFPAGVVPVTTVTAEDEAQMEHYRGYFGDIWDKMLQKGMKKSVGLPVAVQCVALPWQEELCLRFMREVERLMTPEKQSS
- measurement-description: FAAH assay (glutamate dehydrogenase-coupled, oleamide substrate, absorbance at 340 nm)
- Type: biochemical
- study-conditions: irreversible inhibition potency
property-measured: hFAAH KInact/K (M⁻¹ s⁻¹)

- Cc1noc(C)c1COc1cccc(C=C2CCN(C(=O)Nc3cccnn3)CC2)c1 [Example 65]: 130
- CCCC(C)Oc1cccc(C=C2CCN(C(=O)Nc3cccnn3)CC2)c1 (stereo not shown) [Example 30]: 3440
- O=C(Nc1cccnn1)N1CCC(=Cc2cccc(OCCCC(F)(F)F)c2)CC1 [Example 72]: 16800
- O=C(Nc1cccnn1)N1CCC(=Cc2cccc(OCCc3ccsc3)c2)CC1 [Example 78]: 35803
- CC(C)OCCOc1cccc(C=C2CCN(C(=O)Nc3cccnn3)CC2)c1 [Example 47]: 11900
- O=C(Nc1cccnn1)N1CCC(=Cc2cccc(OCCc3cccnc3)c2)CC1 [Example 84]: 10747
- O=C(Nc1cccnn1)N1CCC(=Cc2cccc(OCC3CCCC3)c2)CC1 [Example 86]: 6267
- CCC(C)Oc1cccc(C=C2CCN(C(=O)Nc3cccnc3)CC2)c1 (stereo not shown) [Example 24]: 758
- O=C(Nc1cccnn1)N1CCC(=Cc2cccc(OC3CCC(F)(F)CC3)c2)CC1 [Example 106]: 16400
- CCC(C)Oc1cccc(C=C2CCN(C(=O)Nc3cccnn3)CC2)c1 (stereo not shown) [Example 22]: 1260
- O=C(Nc1cccnn1)N1CCC(=Cc2cccc(OCC3CC=CCC3)c2)CC1 (stereo not shown) [Example 57]: 16300
- O=C(Nc1cccnn1)N1CCC(=Cc2cccc(OCC3CCOCC3)c2)CC1 [Example 76]: 2548
- CC1CCC(Oc2cccc(C=C3CCN(C(=O)Nc4cccnc4)CC3)c2)CC1 (stereo not shown) [Example 36]: 992
- CC1(C)CCC(Oc2cccc(C=C3CCN(C(=O)Nc4cccnn4)CC3)c2)CC1 [Example 81]: 3744
- COCCOc1cccc(C=C2CCN(C(=O)Nc3cccnn3)CC2)c1 [Example 66]: 503
- CCC(Oc1cccc(C=C2CCN(C(=O)Nc3cccnn3)CC2)c1)C(C)C (stereo not shown) [Example 64]: 379
- CCC(CC)Oc1cccc(C=C2CCN(C(=O)Nc3cccnc3)CC2)c1 [Example 14]: 718
- O=C(Nc1cccnn1)N1CCC(=Cc2cccc(OC(F)(F)F)c2)CC1 [Example 5]: 2250
- C=CC(C)Oc1cccc(C=C2CCN(C(=O)Nc3cccnc3)CC2)c1 (stereo not shown) [Example 25]: 939
- CCC(C)COc1cccc(C=C2CCN(C(=O)Nc3cccnn3)CC2)c1 (stereo not shown) [Example 50]: 4500
- O=C(Nc1cccnn1)N1CCC(=Cc2cccc(OC3CCC(C(F)(F)F)CC3)c2)CC1 (stereo not shown) [Example 97]: 3238
- O=C(Nc1cccnc1)N1CCC(=Cc2cccc(OC3CCOC3)c2)CC1 (stereo not shown) [Example 20]: 451
- O=C(Nc1cccnn1)N1CCC(=Cc2cccc(OC3CCC3)c2)CC1 [Example 9]: 531
- O=C(Nc1cccnc1)N1CCC(=Cc2cccc(OC3CCCCCC3)c2)CC1 [Example 18]: 1020
- CCC(COC)Oc1cccc(C=C2CCN(C(=O)Nc3cccnn3)CC2)c1 (stereo not shown) [Example 98]: 276
- O=C(Nc1cccnn1)N1CCC(=Cc2cccc(OCC3CCCO3)c2)CC1 (stereo not shown) [Example 45]: 573
- CO[C@@H](COc1cccc(C=C2CCN(C(=O)Nc3cccnn3)CC2)c1)c1ccccc1 [Example 58]: 473
- COC(C)(C)CCOc1cccc(C=C2CCN(C(=O)Nc3cccnn3)CC2)c1 [Example 49]: 1290
- O=C(Nc1cccnn1)N1CCC(=Cc2cccc(OCCCc3cnoc3)c2)CC1 [Example 94]: 27713
- O=C(Nc1cccnn1)N1CCC(=Cc2cccc(OC3CCCC3)c2)CC1 [Example 13]: 2570
- CCC(CC)Oc1cccc(C=C2CCN(C(=O)Nc3cccnn3)CC2)c1 [Example 27]: 1030

###

- experimental-target: Human FAAH (Homo sapiens)
- Construct: made in house
- Sequence (O00519 32-579 limits assumed): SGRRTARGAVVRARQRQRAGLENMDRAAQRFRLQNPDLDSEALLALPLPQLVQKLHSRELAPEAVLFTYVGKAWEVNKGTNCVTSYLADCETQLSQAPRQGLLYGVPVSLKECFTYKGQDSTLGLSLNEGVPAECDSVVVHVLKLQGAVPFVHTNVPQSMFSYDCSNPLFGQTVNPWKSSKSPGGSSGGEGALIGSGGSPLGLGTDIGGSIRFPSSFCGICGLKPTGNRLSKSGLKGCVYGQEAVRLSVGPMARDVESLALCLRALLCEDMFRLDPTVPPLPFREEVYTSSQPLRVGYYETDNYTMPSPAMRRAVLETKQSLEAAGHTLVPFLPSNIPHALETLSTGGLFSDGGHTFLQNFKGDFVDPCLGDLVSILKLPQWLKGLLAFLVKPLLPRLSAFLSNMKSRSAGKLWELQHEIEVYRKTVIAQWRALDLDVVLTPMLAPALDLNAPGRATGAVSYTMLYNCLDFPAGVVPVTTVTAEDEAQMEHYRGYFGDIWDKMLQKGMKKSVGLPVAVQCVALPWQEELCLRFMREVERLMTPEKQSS
- measurement-description: FAAH assay (glutamate dehydrogenase-coupled, oleamide substrate, absorbance at 340 nm)
- Type: biochemical
- study-conditions: irreversible inhibition potency
property-measured: hFAAH KInact/K

- CCCC(CC)Oc1cccc(C=C2CCN(C(=O)Nc3cccnn3)CC2)c1 (centres unmarked) [Example 41]: 1800 M⁻¹ s⁻¹
- O=C(Nc1cccnn1)N1CCC(=Cc2cccc(OCC3CCCCO3)c2)CC1 (centres unmarked) [Example 104]: 4050 M⁻¹ s⁻¹
- CC1CCCC(Oc2cccc(C=C3CCN(C(=O)Nc4cccnc4)CC3)c2)C1 (centres unmarked) [Example 32]: 712 M⁻¹ s⁻¹
- CCCC(C)Oc1cccc(C=C2CCN(C(=O)Nc3cccnc3)CC2)c1 (centres unmarked) [Example 34]: 1810 M⁻¹ s⁻¹
- O=C(Nc1cccnc1)N1CCC(=Cc2cccc(OC3CCCOC3)c2)CC1 (centres unmarked) [Example 12]: 907 M⁻¹ s⁻¹

Data credit: patent US20110144159A1
